Measured pEC50, listed per entry for reference.
Target: STAT6 (Homo sapiens, UniProt P42226)
Construct: stably transfected HaCaT keratinocyte cell line, which expresses NanoLuc luciferase reporter gene under the transcriptional control of the STAT6 responsive promoter; endogenous in cells; host or cells: HaCaT keratinocyte reporter cell line (stably transfected with a NanoLuc reporter)
Sequence (P42226 whole entry): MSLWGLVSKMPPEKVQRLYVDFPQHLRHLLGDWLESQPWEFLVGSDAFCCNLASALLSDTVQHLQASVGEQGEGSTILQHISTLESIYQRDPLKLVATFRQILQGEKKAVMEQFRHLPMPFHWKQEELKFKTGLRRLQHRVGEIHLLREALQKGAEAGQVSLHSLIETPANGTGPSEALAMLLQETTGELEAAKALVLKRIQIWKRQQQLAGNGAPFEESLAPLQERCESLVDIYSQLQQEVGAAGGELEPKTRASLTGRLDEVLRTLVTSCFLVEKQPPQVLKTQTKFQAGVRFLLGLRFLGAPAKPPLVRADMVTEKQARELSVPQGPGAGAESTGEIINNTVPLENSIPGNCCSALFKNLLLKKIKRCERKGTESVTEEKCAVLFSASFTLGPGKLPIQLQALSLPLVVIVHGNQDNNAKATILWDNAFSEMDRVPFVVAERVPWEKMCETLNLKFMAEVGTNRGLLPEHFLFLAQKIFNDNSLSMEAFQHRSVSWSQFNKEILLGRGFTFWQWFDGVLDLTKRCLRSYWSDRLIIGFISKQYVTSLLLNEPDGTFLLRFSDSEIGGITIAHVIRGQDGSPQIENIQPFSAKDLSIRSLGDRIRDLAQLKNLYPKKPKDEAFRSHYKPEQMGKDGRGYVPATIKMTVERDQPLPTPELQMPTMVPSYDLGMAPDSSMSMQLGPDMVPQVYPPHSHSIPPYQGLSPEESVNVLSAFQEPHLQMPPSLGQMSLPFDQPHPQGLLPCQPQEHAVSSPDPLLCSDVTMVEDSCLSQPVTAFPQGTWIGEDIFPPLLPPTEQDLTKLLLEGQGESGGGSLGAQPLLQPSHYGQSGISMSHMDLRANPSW
Assay: STAT6 Reporter Luciferase Assay (IL-13 stimulated HaCaT keratinocyte NanoLuc reporter cells)
Type: cell-based
Details: STAT6 NanoLuc luciferase reporter, IL-13 stimulated HaCaT keratinocyte cells; read-out: Reporter EC50
Lab note: report pEC50 as minus log10 of the concentration in molar units, number only.

Fill in: STAT6 (Homo sapiens, UniProt P42226) pEC50 for CCn1nc(C(=O)NCc2ccc(NC(=O)N(C)C)cc2)c2c1C[C@@H](C)N(c1ccc(C(=O)N(C)C)cn1)C2 (single isomer, unassigned) [Example 113] = 7.77

Item CC(C)n1nc(C(=O)NCc2ccc(NC(=O)N(C)C)cc2)c2c1[C@@H](C)CN(c1ccc(C(=O)N(C)C)cn1)C2 (single isomer, unassigned) [Example 128] ; assay system STAT6 (Homo sapiens, UniProt P42226); pEC50 reported as 9.52

Tested system STAT6 (Homo sapiens, UniProt P42226); pEC50 recorded for CC(C)n1nc(C(=O)NCc2ccc(NC(=O)N3CC(N(C)C)C3)cc2)c2c1CCN(c1ccc(C(=O)N(C)C)cn1)C2 [Example 141] was 7.66

# pEC50 measured on STAT6 (Homo sapiens, UniProt P42226) for item CC(C)n1nc(C(=O)NCc2ccc(NC(=O)N3CC(C)(N(C)C)C3)cc2)c2c1CCN(c1ccc(C(=O)N(C)C)cn1)C2 [Example 150] = 7.74

Measured pEC50 (STAT6 (Homo sapiens, UniProt P42226)), entry CC(C)n1nc(C(=O)NCc2ccc(NC(=O)N(C)C)cc2)c2c1CCN(c1ncc(-c3nccn3C)cn1)C2 [Example 34] : 8.10

----------
Biological target: STAT6 (Homo sapiens, UniProt P42226)
Construct: stably transfected HaCaT keratinocyte cell line, which expresses NanoLuc luciferase reporter gene under the transcriptional control of the STAT6 responsive promoter; endogenous in cells; host or cells: HaCaT keratinocyte reporter cell line (stably transfected with a NanoLuc reporter)
Experiment: STAT6 Reporter Luciferase Assay (IL-13 stimulated HaCaT keratinocyte NanoLuc reporter cells)
Type: cell-based
Conditions: IL-13 stimulated HaCaT STAT6 NanoLuc reporter cells; read-out: Reporter EC50
measurement_label: pEC50
// returns pEC50 (minus log10 of molar concentration), number only

molecule=CC(C)n1nc(C(=O)NCc2ccc(N)cc2)c2c1[C@@H](C)CN(c1ncc(C(=O)N(C)C)cn1)C2 numeric_value=8.15
molecule=CC(C)n1nc(C(=O)NCc2ccc(NC(=O)N3CCN(C)CC3)c(F)c2)c2c1[C@@H](C)CN(c1ccc(C(=O)N3Cc4cccnc4C3)cc1)C2 numeric_value=9.30
molecule=CC(C)n1nc(C(=O)NCc2ccc(NC(=O)N3CCC[C@H](N(C)C)C3)cc2)c2c1[C@@H](C)CN(c1ccc(C(=O)N(C)C)cc1)C2 numeric_value=8.70
molecule=CC(C)n1nc(C(=O)NCc2ccc(NC(=O)N(C)CC(F)F)cc2)c2c1CCN(c1ccc(C(=O)N(C)C)cn1)C2 numeric_value=8.00
molecule=CC(C)n1nc(C(=O)NCc2ccc(NC(=O)N(C)C)cc2)c2c1CCN(c1ccc(C(=O)N3CCc4cnn(C)c4C3)cn1)C2 numeric_value=7.30

Summary: "CC(C)n1ncc2c1CN(C(=O)c1ccc(N3CCc4c(c(C(=O)NCc5ccc(NC(=O)N(C)C)cc5)nn4C(C)C)C3)nc1)CC2" , STAT6 (Homo sapiens, UniProt P42226), pEC50 = 7.35

Measured pEC50 (STAT6 (Homo sapiens, UniProt P42226)), entry "CNC(=O)c1ccc(CNC(=O)c2nn(C(C)C)c3c2CN(c2ncc(C(=O)N(C)C)cn2)[C@@H](C)C3)cc1" : 7.48

Note to self: pEC50 of "CC(C)n1nc(C(=O)NCc2ccc(NC(=O)N(C)[C@H]3CCOC3)cc2)c2c1CCN(c1ccc(C(=O)N(C)C)cn1)C2" with STAT6 (Homo sapiens, UniProt P42226) was 7.82

Simply: "CC(C)n1nc(C(=O)NCc2ccc(NC(=O)N(C)C)cc2)c2c1CCN(c1ccc(C(=O)N3CC4(COCC(=O)N4)C3)cn1)C2" , STAT6 (Homo sapiens, UniProt P42226), pEC50 = 5.79

Form field, pEC50 with STAT6 (Homo sapiens, UniProt P42226), item "Cc1nc2c(s1)CCN(C(=O)c1ccc(N3CCc4c(c(C(=O)NCc5ccc(NC(=O)N(C)C)cc5)nn4C(C)C)C3)nc1)C2" : 7.96

Reported STAT6 (Homo sapiens, UniProt P42226) pEC50 for item CC(C)c1nc(C(=O)NCc2ccc(NC(=O)N(C)C)cc2)c2n1C(C)CN(c1ccc(C(=O)N(C)C)cc1)C2 (single isomer, unassigned) [Example 539] was 7.89

Test item "CCC(C)(C)n1nc(C(=O)NCc2ccc(NC(=O)N(C)C)cc2)c2c1CCN(c1ccc(C(=O)N(C)C)cn1)C2" ; STAT6 (Homo sapiens, UniProt P42226); reported pEC50 was 5.45

Tested on STAT6 (Homo sapiens, UniProt P42226): "CC(C)n1nc(C(=O)NCc2ccc(NC(N)=O)cc2)c2c1CCN(c1ccc(C(N)=O)cn1)C2" . Observed pEC50: 5.22

Noted pEC50 for "CC(C)n1nc(C(=O)NCc2ccc(NC(=O)N3CCC4(CCCN(C)C4)CC3)cc2)c2c1[C@@H](C)CN(c1ccc(C(=O)N(C)C)cc1)C2" , tested on STAT6 (Homo sapiens, UniProt P42226): 9.52

// pEC50 (STAT6 (Homo sapiens, UniProt P42226)) for CCc1nc(C(=O)NCc2ccc(NC(=O)N(C)C)cc2)c2n1C(C)CN(c1ccc(C(=O)N(C)C)cn1)C2 (single isomer, unassigned) [Example 233] = 7.38

----------
Reported log10 of EC50 by item:
Biological target: STAT6 (Homo sapiens, UniProt P42226)
Construct: stably transfected HaCaT keratinocyte cell line, which expresses NanoLuc luciferase reporter gene under the transcriptional control of the STAT6 responsive promoter; endogenous in cells; host or cells: HaCaT keratinocyte reporter cell line (stably transfected with a NanoLuc reporter)
Experiment: STAT6 Reporter Luciferase Assay (IL-13 stimulated HaCaT keratinocyte NanoLuc reporter cells)
Type: cell-based
Settings: IL-13 stimulated HaCaT STAT6 NanoLuc reporter cells; read-out: Reporter EC50
The base-10 logarithm of EC50, taken with EC50 in nM, is what appears here.

Worked set:
compound="CC(C)n1nc(C(=O)NCc2ccc(NC(=O)N(C)C)cc2)c2c1[C@H](C)[C@@H](C)N(c1ncc(C(=O)N(C)C)cn1)C2 (single isomer, unassigned)" measurement_label="log10 of EC50" numeric_value=1.11
compound=CC(=O)N1CCCN(C(=O)c2ccc(N3CCc4c(c(C(=O)NCc5ccc(NC(=O)N(C)C)cc5)nn4C(C)C)C3)nc2)CC1 measurement_label="log10 of EC50" numeric_value=2.56
compound=CCOC(=O)Nc1ccc(CNC(=O)c2nn(C(C)C)c3c2CN(c2ccc(C(=O)N(C)C)cn2)C[C@@H]3C)cc1 measurement_label="log10 of EC50" numeric_value=0.00

response.value for CCc1nc(C(=O)NCc2ccc(NC(=O)N(C)C)cc2)c2n1C(C)CN(c1ccc(C(=O)N(C)C)cn1)C2 (single isomer, unassigned) [Example 232] (field: log10 of EC50) = 0.30

response.value for "CO[C@@H]1CCN(C(=O)c2ccc(N3CCc4c(c(C(=O)NCc5ccc(NC(=O)N(C)C)cc5)nn4C(C)C)C3)nc2)C1" (field: log10 of EC50) = 2.74

Memo: "CC(C)n1nc(C(=O)NCc2ccc(NC(=O)N(C)C)cc2)c2c1CCN(c1ccc(C(=O)N3CCc4cnc(O)cc4C3)cn1)C2" , reported log10 of EC50: 2.60

----------
Biological target: STAT6 (Homo sapiens, UniProt P42226)
Construct: stably transfected HaCaT keratinocyte cell line, which expresses NanoLuc luciferase reporter gene under the transcriptional control of the STAT6 responsive promoter; endogenous in cells; host or cells: HaCaT keratinocyte reporter cell line (stably transfected with a NanoLuc reporter)
Assay: STAT6 Reporter Luciferase Assay (IL-13 stimulated HaCaT keratinocyte NanoLuc reporter cells)
Format: cell-based
Details: IL-13 stimulated HaCaT STAT6 NanoLuc reporter cells; read-out: Reporter EC50
// assign yes (1) if EC50 falls strictly below 9 nM, else no (0) (ties count as no (0))

// known answers, use as guide
compound="CC(C)n1nc(C(=O)NCc2ccc(NC(=O)N3CC4(CCN(C)CC4)C3)c(F)c2)c2c1[C@@H](C)CN(c1ccc(-n3ccccc3=O)cn1)C2 [Example 632]" test_target="STAT6 (Homo sapiens, UniProt P42226)" answer_label="yes (1)"
compound="CC(C)n1nc(C(=O)NCc2ccc(NC(=O)N(C)C)cc2)c2c1CCN(c1ccc(C(=O)N3Cc4ccc(C#N)cc4C3)cn1)C2 [Example 411]" test_target="STAT6 (Homo sapiens, UniProt P42226)" answer_label="yes (1)"
compound="CC(C)n1nc(C(=O)NCc2ccc(NC(=O)N(C)C)cc2)c2c1CCN(c1ccc(C3CCN(C)C3=O)cn1)C2 (racemic) [Example 505]" test_target="STAT6 (Homo sapiens, UniProt P42226)" answer_label="no (0)"
compound="CC(C)n1nc(C(=O)NCc2ccc(NC(=O)N3CCN(C)CC3)c(F)c2)c2c1[C@@H](C)CN(c1ccc(C(=O)N(C)C)cc1)C2 [Example 580]" test_target="STAT6 (Homo sapiens, UniProt P42226)" answer_label="yes (1)"
compound="CCS(=O)(=O)N1CCN(C(=O)c2ccc(N3CCc4c(c(C(=O)NCc5ccc(NC(=O)N(C)C)cc5)nn4C(C)C)C3)nc2)CC1 [Example 563]" test_target="STAT6 (Homo sapiens, UniProt P42226)" answer_label="no (0)"

Please look at the following compound next.
Lab note: EC50 threshold 9 nM. Does this compound come in strictly under it? CC(C)n1nc(C(=O)NCc2ccc(NC(=O)N3CC4(CCNCC4)C3)cc2)c2c1[C@@H](C)CN(c1ccc(C(=O)N(C)C)cc1)C2 [Example 626] no (0)
